Just for reference, patent US10745360B2 is where these values come from.

assayedSystem: UniProtKB P15056
Sequence (P15056 whole entry): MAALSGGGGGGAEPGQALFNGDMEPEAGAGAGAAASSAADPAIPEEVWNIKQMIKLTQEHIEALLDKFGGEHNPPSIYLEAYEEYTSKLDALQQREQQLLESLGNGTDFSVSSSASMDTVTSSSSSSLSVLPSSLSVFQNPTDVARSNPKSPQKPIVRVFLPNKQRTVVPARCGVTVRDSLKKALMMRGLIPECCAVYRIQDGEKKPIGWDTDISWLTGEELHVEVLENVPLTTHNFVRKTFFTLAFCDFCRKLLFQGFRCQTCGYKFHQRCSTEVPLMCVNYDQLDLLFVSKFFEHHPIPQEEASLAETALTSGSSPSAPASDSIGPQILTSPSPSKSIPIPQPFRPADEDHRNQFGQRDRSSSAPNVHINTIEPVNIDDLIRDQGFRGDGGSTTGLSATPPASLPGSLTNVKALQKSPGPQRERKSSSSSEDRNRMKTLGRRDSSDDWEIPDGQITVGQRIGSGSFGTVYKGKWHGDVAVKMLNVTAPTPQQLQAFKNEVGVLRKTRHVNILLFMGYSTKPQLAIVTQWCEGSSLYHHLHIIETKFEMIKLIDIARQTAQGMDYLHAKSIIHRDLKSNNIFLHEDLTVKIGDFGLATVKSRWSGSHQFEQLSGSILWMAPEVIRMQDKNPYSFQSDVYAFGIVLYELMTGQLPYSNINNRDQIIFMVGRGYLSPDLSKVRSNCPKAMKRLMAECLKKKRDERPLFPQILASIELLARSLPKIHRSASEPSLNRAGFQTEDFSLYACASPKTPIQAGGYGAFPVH
protocolSummary: B-Raf kinase assay ([33P] incorporation into MEK1 K97R)
conditionSet: recombinant B-Raf, 8 μM ATP, 30 min, 30° C.; read-out: IC50 ranking against B-Raf kinase
pIC50: −log10 of the molar value.
Hi there, I'd appreciate the recorded pIC50 for every entry that follows.

Answered examples (3):
Req: Form field: reported pIC50 of CCCS(=O)(=O)Nc1ccc(F)c(Nc2ccc3ncc(OCCOC)nc3c2[N+](=O)[O-])c1F [compound 7]
Resp: > 6.52

Req: Form field: reported pIC50 of CCCS(=O)(=O)Nc1cc(Nc2ccc3ncc(OC)nc3c2C#N)ccc1C [compound 45]
Resp: 5.00 to 6.00

Req: Form field: reported pIC50 of CN(C)c1cnc2ccc(Nc3cc(NS(=O)(=O)c4ccccc4)ccc3F)c(C#N)c2n1 [compound 37]
Resp: > 6.52

As a next step, examine the compound that follows.
Req: Form field: reported pIC50 of CCCS(=O)(=O)Nc1cccc(Nc2ccc3ncc(N4CCOCC4)nc3c2C#N)c1C [compound 38]
Resp: > 6.52
